tested on: PIP5K1C; conditions: concentration: 1 μM,replicates: in singlicate; n = 1;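 further: KINOMEscan kinase panel screen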
For each entry below, report its %Inh value.
Write the quantity with the unit trailing the number.

Quick check: %Inh of Cl.Cl.NC[C@H](Cc1ccc(C(F)(F)F)cc1)NC(=O)c1cc(Br)c(-c2ccnc3[nH]ccc23)s1 [GSK1487252] ?
22%

Also CCn1c(-c2nonc2N)nc2c(C#CC(C)(C)O)nc(OCCN)cc21.Cl.Cl [GSK902056] ?
86%

Also `Cc1cc2cn[nH]c2cc1-c1cccc2c(N)c(C(N)=O)nnc12` ?
0%

Also `CCN(CC)CCCCNc1ncc2cc(-c3c(Cl)cccc3Cl)c(NC(=O)NC(C)(C)C)nc2n1` ?
0%

----------
test system: HIPK3; conditions: concentration: 1 μM,replicates: in singlicate; n = 1
metricName: %Inh

Quick check: %Inh of Cc1occc1-c1nc(N)c(OC[C@@H](N)Cc2c[nH]c3ccccc23)cc1-c1cc2c(C)n[nH]c2cn1 [GSK1660450] ?
98.8%

Also O=C(NCCNc1ccnc(NCc2ccc(F)cc2)n1)c1cc2ccccc2s1 [GSK1379944] ?
75%

Also C=CC(=O)Nc1cc2c(Nc3ccc(F)c(Cl)c3)ncnc2cc1OCCCN1CCOCC1 [GW781483] ?
0%

Also `CC(C)N1C(=O)Cc2cc(Nc3ncc(C(F)(F)F)c(NCc4cccc(S(C)(=O)=O)c4)n3)ccc21` ?
11%

Also Cc1n[nH]c2ccc(-c3cc(OC[C@@H](N)Cc4ccccc4)cnc3-c3ccoc3)cc12.O=C(O)C(F)(F)F.O=C(O)C(F)(F)F [GSK507358] ?
28%

Also Nc1nc(Nc2ccccc2)cc(-c2ccc3c(N)n[nH]c3c2)n1 [GSK2225749] ?
12%

Also Cl.Cl.NC[C@H](Cc1ccc(C(F)(F)F)cc1)NC(=O)c1cc(Br)c(-c2ccnc3[nH]ccc23)s1 [GSK1487252] ?
48%

Also `O=C(NCCCN1CCOC1=O)c1cnc(NCc2cc(Cl)ccc2Cl)nc1NC1CCCC1` ?
23%

----------
tested on: LKB1; construct: gene STK11; details: concentration: 1 μM,replicates: in singlicate; n = 1
metricName: %Inh (%)
Express your answer in %, writing the number without its unit.

Quick check: %Inh of `Cc1occc1-c1nc(N)c(OC[C@@H](N)Cc2c[nH]c3ccccc23)cc1-c1cc2c(C)n[nH]c2cn1` ?
0

Also `O=C(NCCNc1ccnc(NCc2ccc(F)cc2)n1)c1cc2ccccc2s1` ?
0

Also `O=C(NCCCN1CCOC1=O)c1cnc(NCc2cc(Cl)ccc2Cl)nc1NC1CCCC1` ?
2

Also `C[C@@H]1CCN(C(=O)CC#N)C[C@@H]1N(C)c1ncnc2[nH]ccc12` ?
0

Also `C=CC(=O)Nc1cc2c(Nc3ccc(F)c(Cl)c3)ncnc2cc1OCCCN1CCOCC1` ?
0

Also `CCN(CC)CCCCNc1ncc2cc(-c3c(Cl)cccc3Cl)c(NC(=O)NC(C)(C)C)nc2n1` ?
0

Also `Nc1nc(Nc2ccccc2)cc(-c2ccc3c(N)n[nH]c3c2)n1` ?
15

Also `CCN(CC)CCOc1ccc(Nc2ncc3cc(-c4c(Cl)cccc4Cl)c(=O)n(C)c3n2)cc1` ?
4

----------
system: CDK4-cyclinD3; conditions: concentration: 1 μM,replicates: in singlicate; n = 1
For each entry below, report its %Inh value.
Express your answer in %, writing the number without its unit.

Quick check: %Inh of `CC(C)N1C(=O)Cc2cc(Nc3ncc(C(F)(F)F)c(NCc4cccc(S(C)(=O)=O)c4)n3)ccc21` ?
0

Also `C[C@@H](Oc1cc(-c2cnn(C3CCNCC3)c2)cnc1N)c1c(Cl)ccc(F)c1Cl` ?
0

Also NC(=O)c1cc(-c2ccccc2)cc2c(C3CCNCC3)c[nH]c12 [GSK301362] ?
3

----------
tested on: TRKC; construct: gene NTRK3; conditions: concentration: 1 μM,replicates: in singlicate; n = 1
For each entry below, report its %Inh value.
Write the quantity with the unit trailing the number.

Quick check: %Inh of `C[C@@H]1CCN(C(=O)CC#N)C[C@@H]1N(C)c1ncnc2[nH]ccc12` ?
0%

Also C=CC(=O)Nc1cc2c(Nc3ccc(F)c(Cl)c3)ncnc2cc1OCCCN1CCOCC1 [GW781483] ?
18%

Also `Cc1cc(C(=O)Nc2ccc(Oc3ccc4nc(NC(=O)C5CC5)cn4n3)cc2)nn1-c1ccccc1` ?
12%

----------
system: GAK; conditions: concentration: 1 μM,replicates: in singlicate; n = 1
metricName: %Inh (%)
Express your answer in %, writing the number without its unit.

What measured %Inh is associated with CC(C)Nc1cc(-c2ccc3c(N)n[nH]c3c2)nc(N)n1 [GSK2221681] on GAK?
0

Also `O=C(NCCCN1CCOC1=O)c1cnc(NCc2cc(Cl)ccc2Cl)nc1NC1CCCC1` ?
4

Also `CC(C)N1C(=O)Cc2cc(Nc3ncc(C(F)(F)F)c(NCc4cccc(S(C)(=O)=O)c4)n3)ccc21` ?
14

Also NC(=O)c1cc(-c2ccccc2)cc2c(C3CCNCC3)c[nH]c12 [GSK301362] ?
15

Also Cl.Cl.NC[C@H](Cc1ccc(C(F)(F)F)cc1)NC(=O)c1cc(Br)c(-c2ccnc3[nH]ccc23)s1 [GSK1487252] ?
0

Also `Cc1cc(C(=O)Nc2ccc(Oc3ccc4nc(NC(=O)C5CC5)cn4n3)cc2)nn1-c1ccccc1` ?
6

Also Cc1ccc(-n2nc(C(C)(C)C)cc2NC(=O)Nc2ccc(OCCN3CCOCC3)c3ccccc23)cc1 [GW839464] ?
0

Also `C[C@@H](Oc1cc(-c2cnn(C3CCNCC3)c2)cnc1N)c1c(Cl)ccc(F)c1Cl` ?
2

Also `Cc1cc2cn[nH]c2cc1-c1cccc2c(N)c(C(N)=O)nnc12` ?
34

Also Cc1n[nH]c2ccc(-c3cc(OC[C@@H](N)Cc4ccccc4)cnc3-c3ccoc3)cc12.O=C(O)C(F)(F)F.O=C(O)C(F)(F)F [GSK507358] ?
82

----------
test system: JNK1; construct: gene MAPK8; conditions: concentration: 1 μM,replicates: in singlicate; n = 1
For each entry below, report its %Inh value.
Express your answer in %, writing the number without its unit.

Quick check: %Inh of CN(C)CC(O)COc1ccc(Nc2nccc(-c3cnn4nc(N5CCOCC5)ccc34)n2)cc1 (stereo not shown) ?
99.6

Also `Cc1cc2cn[nH]c2cc1-c1cccc2c(N)c(C(N)=O)nnc12` ?
63

Also `CCN(CC)CCCCNc1ncc2cc(-c3c(Cl)cccc3Cl)c(NC(=O)NC(C)(C)C)nc2n1` ?
78

Also `Cl.Cl.NC[C@H](Cc1ccc(C(F)(F)F)cc1)NC(=O)c1cc(Br)c(-c2ccnc3[nH]ccc23)s1` ?
17

Also `CN(C)CCOc1ccc(-c2cc(-c3c[nH]nc3-c3ccccn3)ccn2)cc1` ?
31

Also `Cc1cc(C(=O)Nc2ccc(Oc3ccc4nc(NC(=O)C5CC5)cn4n3)cc2)nn1-c1ccccc1` ?
0

Also `Cl.Cl.NC[C@H](CC1CCCCC1)NC(=O)c1cc(Br)c(-c2ccnc3[nH]ccc23)s1` ?
30

----------
For each entry below, report its %Inh value.
system: DCAMKL1; construct: gene DCLK1; settings: concentration: 1 μM,replicates: in singlicate; n = 1
Express your answer in %, writing the number without its unit.

Quick check: %Inh of CN(C)CC(O)COc1ccc(Nc2nccc(-c3cnn4nc(N5CCOCC5)ccc34)n2)cc1 (stereo not drawn) ?
72

Also `Cc1ccc2c(-c3ccncc3)c(-c3ccc(F)cc3)nn2c1.Cl` ?
0

Also `CCN(CC)CCCCNc1ncc2cc(-c3c(Cl)cccc3Cl)c(NC(=O)NC(C)(C)C)nc2n1` ?
11

Also `Cl.Oc1cc(-c2nc(-c3ccccc3)[nH]c2-c2ccncc2)ccc1Cl` ?
34

Also `Cc1n[nH]c2ccc(-c3cc(OC[C@@H](N)Cc4ccccc4)cnc3-c3ccoc3)cc12.O=C(O)C(F)(F)F.O=C(O)C(F)(F)F` ?
0

Also `C[C@@H](Oc1cc(-c2cnn(C3CCNCC3)c2)cnc1N)c1c(Cl)ccc(F)c1Cl` ?
88

Also `C[C@@H]1CCN(C(=O)CC#N)C[C@@H]1N(C)c1ncnc2[nH]ccc12` ?
0

Also `Cc1cc2cn[nH]c2cc1-c1cccc2c(N)c(C(N)=O)nnc12` ?
71

Also `NC(=O)c1cc(-c2ccccc2)cc2c(C3CCNCC3)c[nH]c12` ?
14

----------
tested on: RAF1; conditions: concentration: 1 μM,replicates: in singlicate; n = 1
metricName: %Inh (%)
Express your answer in %, writing the number without its unit.

Quick check: %Inh of Cc1n[nH]c2ccc(-c3cc(OC[C@@H](N)Cc4ccccc4)cnc3-c3ccoc3)cc12.O=C(O)C(F)(F)F.O=C(O)C(F)(F)F [GSK507358] ?
0

Also Cc1occc1-c1nc(N)c(OC[C@@H](N)Cc2c[nH]c3ccccc23)cc1-c1cc2c(C)n[nH]c2cn1 [GSK1660450] ?
0

Also C=CC(=O)Nc1cc2c(Nc3ccc(F)c(Cl)c3)ncnc2cc1OCCCN1CCOCC1 [GW781483] ?
0

Also Cl.Cl.Nc1nc(-c2ccc3c(N)n[nH]c3c2)cc(N2CCCC(NC(=O)c3ccccc3)C2)n1 (centres unmarked) [GSK2286775] ?
9

Also CC(C)Nc1cc(-c2ccc3c(N)n[nH]c3c2)nc(N)n1 [GSK2221681] ?
0

Also NC(=O)c1cc(-c2ccccc2)cc2c(C3CCNCC3)c[nH]c12 [GSK301362] ?
3

Also Cc1ccc(-n2nc(C(C)(C)C)cc2NC(=O)Nc2ccc(OCCN3CCOCC3)c3ccccc23)cc1 [GW839464] ?
26

Also O=C(NCCNc1ccnc(NCc2ccc(F)cc2)n1)c1cc2ccccc2s1 [GSK1379944] ?
11
